# credit: patent US20230122364A1

- assay.system: SARS-CoV-2 spike (S) protein on authentic SARS-CoV-2 virus (strain WA1/2020) (SARS-CoV-2, UniProt P0DTC2 14-1273)
- test.description: cell-based or functional assay
Is SARS-CoV-2 focus reduction test, IC50 at least 0.7 µg/mL? Then criterion met. If not, criterion not met.

Given COV2-2098 (antibody, V domains shown) VH: EVQLLESGGGLIQPGGSLRLSCAASGFTFSNYAMSWVRQAPGKGLEWVSGIISTSGGATYNADSVRGRFTTSRDNSKNILYLQMNSLRGEDTAVYYCVKGLFDWFPLWGQGTMVTVSS VL: DIVMTQSPATLSVSPGERAILSCRASQSVRSNLAWYQQKPGQAPRLLISGASTRATAIPARFSGSGSGTEFTLTITSLQSEDCAVYYCHQYNNWPQTFGQGTKVEIK , state whether its SARS-CoV-2 focus reduction test, IC50 is at least 0.7 µg/mL. criterion met

Hi, just wondering whether COV2-2113 (antibody, V domains shown) VH: EVQLVESGGGLIQPGGSLRLSCAASEVTVSSNYMSWVRQAPGKGLEWVSLIYSGGTTYYADSVKGRFTISRDNSKNTLYLQMNSLRAEDTAVYYCARDFLRWHDLWGQGTLVTVSS VL: DIQMTQSPSSLSASVGDRVTITCQASQDINNYLNWYQQKPGKAPKLLIYDASNLETGVPLRFSGSGSGTDFIFTISSLQPEDIATYYCQQYDNLPPVFGGGTKVEIK shows SARS-CoV-2 focus reduction test, IC50 of 0.7 µg/mL or higher. criterion not met

Please indicate if the recorded SARS-CoV-2 focus reduction test, IC50 for COV2-2068 (antibody, V domains shown) VH: EVQLVESGGGLVQPGGSLRLSCAASGFTVSSNYMSWVRQAPGKGLEWVSVIYPGGSAFYADSVKGRFTISRHNSNNTLCLQMNSLRTEDTAVYYCARSYDILTGYRDAFDIWGQGTMVTVSS VL: QSVLTQPPSVSGAPGQRVTISCTGSSSNIGSGSDVHWYQQLPGTAPKLLIYGNTNRPSGVPDRFSGSKSGTSASLAITGLQAEDEADYYCQSYDSRLSGFVVFGGGTKLTVL meets or exceeds 0.7 µg/mL. criterion met

Is SARS-CoV-2 focus reduction test, IC50 at least 0.7 µg/mL? Consider COV2-2103 (antibody, V domains shown) VH: EVQLVESGGGLVQPGGSLRLSCAASGFTFSRHWMTWVRQAPGKGLEWVANIKQDGSEKYYVDSVKGRLTISRDNAKNSLYLQMNSLRAEDTAVYYCARLGFYYGGADYWGQGTLVTVSS VL: NFMLTQPHSVSESPGKTVTISCTGSSGSIASNYVQWYQQRPGSAPTTVISEDNQRPSGVPDRFSGSIDSSSNSASLTISGLKTEDEADYYCQSYDGINRAWVFGGGTKLTVL criterion met

Answer whether SARS-CoV-2 focus reduction test, IC50 of COV2-2132 (antibody, V domains shown) VH: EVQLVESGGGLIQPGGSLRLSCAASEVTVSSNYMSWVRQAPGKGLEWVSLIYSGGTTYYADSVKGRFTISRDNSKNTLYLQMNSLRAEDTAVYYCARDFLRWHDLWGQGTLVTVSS VL: DIQMTQSPSSLSASVGDRVTITCQASQDINNYLNWYQQKPGKAPKLLIYDASNLETGVPLRFSGSGSGTDFTFTISSLQPEDIATYYCQQYDNLPPVFGGGTKVEIK is greater than or equal to 0.7 µg/mL. criterion not met

Given the entry COV2-2082 (antibody, V domains shown) VH: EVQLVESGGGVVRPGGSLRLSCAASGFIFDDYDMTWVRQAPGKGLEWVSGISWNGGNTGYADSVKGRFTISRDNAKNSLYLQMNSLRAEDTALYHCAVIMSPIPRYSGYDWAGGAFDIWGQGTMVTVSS VL: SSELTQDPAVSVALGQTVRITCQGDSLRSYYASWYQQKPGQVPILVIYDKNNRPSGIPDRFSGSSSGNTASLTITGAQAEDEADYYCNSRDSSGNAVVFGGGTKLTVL , answer whether its SARS-CoV-2 focus reduction test, IC50 meets or surpasses 0.7 µg/mL. criterion not met

Tell me whether SARS-CoV-2 focus reduction test, IC50 is at least 0.7 µg/mL here: COV2-2046 (antibody, V domains shown) VH: EVQLVESGGGLVQPGRSLRLSCAASGFTFDDYAMHWVRQAPGKGLEWVSGISWNSGSIAYTDSVKGRFTISRDNAKNSLYLQMNSLRAEDTALYYCAKAHSTGHQYYYGMDVWGQGTTVTVSS VL: DIQMTQSPSSLSASVGDRVTITCRASQSISSFLNWYQQKPGKAPKLLIYAAFNLQSGVPSRFSGSGSGTDFTLTISSLQSEDFATYYCQQSYNTPYTFGQGTKLEIK criterion not met
